The values you see were collected from patent US20220056125A1.

# TGT: T1, human PAR-2 (human, UniProt P55085 26-397)
# T1 sequence: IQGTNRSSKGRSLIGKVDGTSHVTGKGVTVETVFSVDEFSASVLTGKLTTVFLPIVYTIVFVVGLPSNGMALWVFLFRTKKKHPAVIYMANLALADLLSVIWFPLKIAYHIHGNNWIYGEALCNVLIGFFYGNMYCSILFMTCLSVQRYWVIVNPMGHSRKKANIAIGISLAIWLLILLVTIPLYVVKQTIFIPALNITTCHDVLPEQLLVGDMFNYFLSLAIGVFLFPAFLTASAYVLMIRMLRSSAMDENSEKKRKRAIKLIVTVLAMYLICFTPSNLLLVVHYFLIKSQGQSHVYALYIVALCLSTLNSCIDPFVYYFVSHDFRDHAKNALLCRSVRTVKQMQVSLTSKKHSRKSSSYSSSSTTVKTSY
# ASSAY_METHOD_TEXT: cell-based or functional assay
ASSAY_ENDPOINT: PAR-2 β-arrestin cell based assay IC50, 2 µM SLIGKV (nM)
Only the number, expressed in nM, is required.

| BINDER | UNITS_OF_MEASURE | REPORTED |
| --- | --- | --- |
| P24E283 (antibody, human IgG4 S228P, kappa, V domains shown) VH: QVQLVQSGAEVKKPGSSVKVSCKASGFSLNSYAVIWVRQAPGQGLEWMGVIWGNGNTYYAQKFQGRVTITADESTSTAYMELSSLRSEDTAVYYCARWRGYKDYPFDYWGQGTLVTVSS VL: EIVLTQSPATLSLSPGERATLSCKASQNIYKYLDWYQQKPGQAPRLLIYNTNSLATGIPARFSGSGSGRDFTLTISSLEPEDFAVYYCLQHNSGWTFGGGTKVEIKR | nM | 3.6 |

Then there is this binder:
## Task I am curious: what PAR-2 β-arrestin cell based assay IC50, 2 µM SLIGKV value has been reported for P24E971 (antibody, human IgG4 S228P, kappa, V domains shown) VH: QVQLVQSGAEVKKPGSSVKVSCKASGFSLSSYAISWVRQAPGQGLEWMGVIWGNGNVYYAQKFQGRVTITADESTSTAYMELSSLRSEDTAVYYCARWKGYKDYPFDYWGQGTLVTVSS VL: EIVLTQSPATLSLSPGERATLSCRASQNVYKWLDWYQQKPGQAPRLLIYNAYSRATGIPARFSGSGSGRDFTLTISSLEPEDFAVYYCQQHHSGWTFGGGTKVEIKR ?
## Result 2.4
